- TARGET: NOSNoc
- ASSAY OVERVIEW: NOSNoc activity, oxyhemoglobin spectrophotometric assay (kinetics and inhibition)
- Type: biochemical, Nocardia species (NRRL 5646)
- STUDY CONDITIONS: L-Arginine as substrate; model of competitive inhibition; mean S.D. of three determinations
- Description: Assays for NOS activity were carried out using a Shimadzu 160 spectrophotometer by observing the increase in absorbance at 401 nm at 25° C. A typical sample assay contained 50 mM potassium phosphate buffer (pH 7.5), 4 μM oxyHb, 100 μM L-arginine of L-NOHA (for kinetic experiments), 100 μM NADPH, 1 mM CaCl2, 10 μM FAD, 10 μM FMN, 80 μM H4 B, 150 μM DTT and 0.1-2 μg enzyme in a final volume of 1 ml. For assays, the reference cuvette contained all components except for L-arginine or L-NOHA. […]
OBSERVED PROPERTY: Ki

- STRUCTURE NOTATION: "N=C(NCCC[C@H](N)C(=O)O)N[N+](=O)[O-]"
  VALUE MEASURED: "9.8 µM"
- STRUCTURE NOTATION: "CNC(=N)NCCC[C@H](N)C(=O)O"
  VALUE MEASURED: "6.2 µM"

* * *

Attribute: pKi
- TARGET: NOSNoc
- ASSAY OVERVIEW: NOSNoc activity, oxyhemoglobin spectrophotometric assay (kinetics and inhibition)
- Type: biochemical, Nocardia species (NRRL 5646)
- STUDY CONDITIONS: N^G -Hydroxy-L-arginine as substrate; model of competitive inhibition; mean S.D. of three determinations
pKi: −log10 of the molar value.

- COMPOUND: "CNC(=N)NCCC[C@H](N)C(=O)O [N^G -methyl-L-arginine]"
  TARGET: "NOSNoc"
  pKi: 4.67
- COMPOUND: "N=C(NCCC[C@H](N)C(=O)O)N[N+](=O)[O-] [N^G -nitro-L-arginine]"
  TARGET: "NOSNoc"
  pKi: 4.67
